Tested on: NCI-H460 lung
Outcome codes: active, inactive

{"molecule": "Cc1cn2c(/C=N/N=C(N)N)c(-c3cc(Cl)sc3Cl)nc2s1", "studySystem": "NCI-H460 lung", "classification": "inactive"}
{"molecule": "CC#CC(=O)N[C@H]1CCCN(c2c(F)cc(C(N)=O)c3[nH]c(C)c(C)c23)C1", "studySystem": "NCI-H460 lung", "classification": "inactive"}
{"molecule": "COc1cc([N+](=O)[O-])c(OC)cc1-c1nc2n(c1/C(N)=N/C(=N)N)CCS2", "studySystem": "NCI-H460 lung", "classification": "inactive"}
{"molecule": "Cc1nc2sc(C(=O)Nc3cccc(Cl)c3C)c(N)c2cc1C(=O)c1ccccc1", "studySystem": "NCI-H460 lung", "classification": "active"}
{"molecule": "Nc1ncnc2c1c(C(=O)NO)cn2C1OC(CO)C(O)C1O (centres undefined)", "studySystem": "NCI-H460 lung", "classification": "inactive"}
{"molecule": "CNc1ccc(C(=O)CC(O)CCC(C)C2OC(=O)CC(O)CC(=O)CC(O)CC(O)CC(O)CC(O)CC3(O)CC(O)C(C(=O)NCCc4ccccn4)C(CC(OC4OC(C)C(O)C(N)C4O)/C=C/C=C/C=C/C=C\\C=C/C=C/C=C/C2C)O3)cc1 (centres undefined)", "studySystem": "NCI-H460 lung", "classification": "active"}
{"molecule": "Cc1csc(-c2ccc3c(c2)COC3(CCCN(C)C)c2ccc(F)cc2)c1 (centres undefined)", "studySystem": "NCI-H460 lung", "classification": "inactive"}
{"molecule": "Cc1cccc2c1NC(=O)C2(c1ccc(O)cc1)c1ccc(O)cc1", "studySystem": "NCI-H460 lung", "classification": "inactive"}
{"molecule": "N#C/C(=C\\c1ccc([N+](=O)[O-])s1)c1nc2cc(Br)ccc2s1", "studySystem": "NCI-H460 lung", "classification": "active"}
